Assay: soluble on expression in E. coli; label from the status in PepcDB or PDB records
measurement.type: soluble on expression in E. coli

Before answering, review these 5 worked examples.
# sequence.data, soluble on expression in E. coli
rows = [
    ("APQIQYKQLQLARLKILRELSNKRNSTVITMIHRQESIGLFGIPVYKFITIEDSEEILRAIRAAPKDKPIDLIIHTPGGLVLAATQIAKALKAHPAETRVIVPHYAMSGGTLIALAADKIIMDENAVLGPVDPQLGQYPAPSIVKAVEQKGADKADDQTLILADIAKKAINQVQNFVYNLLKDKYGEEKAKELSKILTEGRWTHDYPITVEEAKELGL", "not soluble"),
    ("MGSDKIHHHHHHMVINIEQAIAWMASRKGKVTYSMDYRNGPSSYDCSSSVYFALRSAGASDNGWAVNTEYEHDWLIKNGYVLIAENTNWNAQRGDIFIWGKRGASAGAFGHTGMFVDPDNIIHCNYGYNSITVNNHDEIWGYNGQPYVYAYRYARKQSNAKVDNQSVVSKFEKELDVNTPLSNSNMPYYEATISEDYYVESKPDVNSTDKELLVAGTRVRVYEKVKGWARIGAPQSNQWVEDAYLIDATDM", "not soluble"),
    ("SRKVFVGGLPPDIDEDEITASFRRFGPLVVDWPHKAESKSYFPPKGYAFLLFQEESSVQALIDACLEEDGKLYLCVSSPTIKDKPVQIRPWNLSDSDFVMD", "soluble"),
    ("MGSDKIHHHHHHMQSKIAEAIKLGNQPVAVMRSDAKPEGAMQFKEGRWGCAISLLNMAAKGQVAVFANSTTTCSGGKVGLGFRQFELGFIEHFLSVGGVGGREGEFYKKNPELAGKFALELPKVTAKEYIIFKPLSELKADETPEGIIFLANADQISALTVLANYDRPTQDNVKVNFGAGCHQTVLFTLDQVDKDEDHCFIGLTDPSARKFIDKDILSFSMTYKRFLELEEQVEESFLTKETWLKVAERI", "not soluble"),
    ("MGHHHHHHSHMEAPGPAQAAAAESNSREVTEDAADWAPALCPSPEARSPEAPAYRLQDCDALVTMGTGTFGRVHLVKEKTAKHFFALKVMSIPDVIRRKQEQHVHNEKSVLKEVSHPFLIRLFWTWHEERFLYMLMEYVPGGELFSYLRNRGHFSSTTGLFYSAEIICAIEYLHSKEIVYRDLKPENILLDRDGHIKLTDFGFAKKLVDRTWTLCGTPEYLAPEVIQSKGHGRAVDWWALGILIFEMLSGFPPFFDDNPFGIYQKILAGKLYFPRHLDFHVKTGRMM", "not soluble"),
]

What does the record list as soluble on expression in E. coli for SPEFMVKAKSWTLKKHFQGKPTQSDFELKTVELPPLKNGEVLLEALFLSVDPYMRIASKRLKEGAVMMGQQVARVVESKNSAFPAGSIVLAQSGWTTHFISDGKGLEKLLTEWPDKLPLSLALGTIGMPGLTAYFGLLEVCGVKGGETVLVSAAAGAVGSVVGQIAKLKGCKVVGAAGSDEKIAYLKQIGFDAAFNYKTVNSLEEALKKASPDGYDCYFDNVGGEFLNTVLSQMKDFGKIAICGAISVYNRMDQLPPGPSPESIIYKQLRIEGFIVYRWQGDVREKALRDLMKWVLEGKIQYHEHVTKGFENMPAAFIEMLNGANLGKAVVTA ?
soluble

I have this sequence here, SASTIYTCKECGSDLNLNPNDLFPPDFYFEAGNKGTLSFAAVDAEKFRFEKEDKIMPFFETLNYWGIQRKRTKIKCTSCNHLIGYIYDDGPPLTGGIGQYGFGPSQVIPRAPRYRFKTKARQDGWQYGGLTAFWN , and I need its recorded soluble on expression in E. coli.
soluble

soluble on expression in E. coli for MNEADYLRLLTRQAEQANDFLSNARKWDRERWVCQRFLEALNVPYRQEDFAAPGEQPPDVLFKGAGFEVFFVLDEGRRLNEEWREELTRRRQAVSLRQLIRREERPQRIAAAELQARLAPTLRKKAHNYSERGIDHGELDLLAFVNLKRAVPDFNTPFPPPTEYLRQGWRSLSMVGPTFARVLFAHSGAPEFLRANLGRSILFDAGVGL ?
soluble

Can you share its soluble on expression in E. coli? I mean this sequence: MNNRSAVRILRLPAVIQKTGMARATIYDWLNPKSPRYDATFPKKRMLGVKSVGWIEAEIDEWLSQRCKLILEHHHHHH
not soluble

Fill in: soluble on expression in E. coli of GSHMASPPTHNAHNWRLGQAPANWYNDTYPLSPPQRTPAGIRYRIAVIADLDTESRAQEENTWFSYLKKGYLTLSDSGDKVAVEWDKDHGVLESHLAYKGRGMELSDLIVFNGKLYSVDDRTGVVYQIEGSKAVPWVILSDGDGTVEKGFKAEWLAVKDERLYVGGLGKEWTTTTGDVVNENPEWVKVVGYKGSVDHENWVSNYNALRAAAGIQPPGYLIHESACWSDTLQRWFFLPRRASQERYSEKDDERKGANLLLSASPDFGDIAVSHVGAVVPTHGFSSFKFIPNTDDQIIVALKSEEDSGRVASYIMAFTLDGRFLLPETKIGSVKYEGIEFI is ___
soluble

Field request: soluble on expression in E. coli | item: MGSDKIHHHHHHVSKIGIPRTLAYFIYFPLWKTFFEELGHEVVLSPATSKAILDRGVKEAVNDACIPIKLYHGHAAALAGKVDYIFCPRLVSVRSHGDFGTETFCPKFLGLPDMLRLAMDDLPEIIDVRVDLKQGKDGLWQLSQEIGKGLGNSREEIKRAFNRAREQQRQYNRLLYQEMLPLEALKIIEQKNPIPKKEKSNENYDLQVAVVGYPYLLYDAYINAGLLAILEKEKVKVYTQDIISDRKMNQQAKTLPKSTFWYFSNRVIYGALHFMQRPEIEGVIHLTAFACGPDSMVDRLLEIESRRRGNRPYLSIAVDEHTGEAGVRTRIEAFVDMLRYRRERK
not soluble

Would you mind telling me what soluble on expression in E. coli value was observed for ESICLIGHSLGGDLARYFASEFEEVKKLILLDGGYLDLDKILPLDTELEETKNYIKSQIVSDLDVLTSKEKSEAKHWSENMEKAVRQSYHWNVEYNRYELAINYENIEAILRLRRKIQAFKREVGDTLFISPRYPNEATWREEALKELPDYFDTIFLENFGHELYTQAPKEIASLMNEWLAYFL ?
not soluble
